Test system: Rabbit Psoas myofibrils (skeletal myosin ATPase)
TEST METHOD NOTES: Myofibril ATPase assay, rabbit psoas (skeletal) myofibrils
Type: biochemical
MEASUREMENT CONTEXT: Y75 value (no ‡ mark); rabbit psoas myofibrils
# if measured Skeletal EC25 < 80 nM: class 1  # else: class 0

-- ask Please indicate whether the reported Skeletal EC25 of Cc1c(CC(=O)N[C@H](C)c2ncc(C3COC3)cn2)c(=O)[nH]c2ccc(F)c(F)c12 (single isomer, unassigned) is strictly below 80 nM.
-- reply class 0

-- ask Please do the same for Cc1c(C(F)(F)C(=O)N[C@@H](C)c2ncc(C#N)cc2F)c(=O)[nH]c2cccc(C#N)c12 (single isomer, unassigned) as well.
-- reply class 1

-- ask Try "CCc1c(CC(=O)N[C@@H](C)c2ccc(F)cc2F)c(=O)[nH]c2ccccc12" next.
-- reply class 1

-- ask Request: "Cc1nnccc1[C@@H](C)NC(=O)Cc1c(C)c2cc(F)ccc2[nH]c1=O"
-- reply class 0

-- ask Next: Cc1nc(C#N)cnc1[C@H](C)NC(=O)Cc1cc2cc(F)c(F)cc2[nH]c1=O (single isomer, unassigned)
-- reply class 0

-- ask What would you report for Cc1c(C(F)(F)C(=O)N[C@H](C)c2ncc(C#N)cc2F)c(=O)[nH]c2ccc(F)c(C#N)c12 (single isomer, unassigned) ?
-- reply class 0

-- ask Another compound to look at: N#Cc1cnc2c(c1)OC[C@H]2NC(=O)Cc1cc2c(F)c(F)ccc2[nH]c1=O (single isomer, unassigned)
-- reply class 1

-- ask And what about the compound Cc1c(O)ccc2[nH]c(=O)c(CC(=O)N[C@@H](C)c3ncc(F)cc3F)cc12 (single isomer, unassigned) ?
-- reply class 0

-- ask Another compound to look at: C[C@H](NC(=O)[C@H](C)c1c(C(F)(F)F)c2cc(F)ccc2[nH]c1=O)c1ccc(F)cc1F (single isomer, unassigned) [compound 100]
-- reply class 1

-- ask Next compound up: Cc1c(C2(C(=O)N[C@@H](C)c3ncc(C#N)cc3F)CC2)c(=O)[nH]c2cccc(C#N)c12 (single isomer, unassigned)
-- reply class 0

-- ask Next compound up: Cc1c([C@H](C)C(=O)N[C@H](C)c2ncc(C#N)cc2F)c(=O)[nH]c2ccc(F)c(F)c12 (single isomer, unassigned)
-- reply class 1

-- ask Please answer likewise for Cc1nc(C#N)cnc1[C@H](C)NC(=O)C1(c2cc3c(F)c(F)ccc3[nH]c2=O)CC1 (single isomer, unassigned)
-- reply class 0

-- ask Next up: "Cc1cc([C@H](C)NC(=O)Cc2c(C)c3cc(F)ccc3[nH]c2=O)ncc1F"
-- reply class 0

-- ask Then "Cc1c(CC(=O)N[C@@H](C)c2ncc(C#N)cc2F)c(=O)[nH]c2ccc(F)c(F)c12" ?
-- reply class 1

-- ask Request: C[C@H](NC(=O)C1(c2cc3c(F)c(F)ccc3[nH]c2=O)CC1)c1cnc(C#N)cn1 (single isomer, unassigned)
-- reply class 0

-- ask Another compound: C[C@H](NC(=O)Cc1c(C2CC2)c2cc(F)ccc2[nH]c1=O)c1ccc(C#N)nn1 (single isomer, unassigned)
-- reply class 0

-- ask Record: Cc1c([C@@H](C)C(=O)N[C@@H](C)c2ncc(C#N)cc2F)c(=O)[nH]c2ccc(F)c(F)c12 (relative stereo)
-- reply class 1

-- ask Try this compound too: Cc1c(CC(=O)N[C@H](CO)c2ccc(F)cc2F)c(=O)[nH]c2cccc(C#N)c12 (single isomer, unassigned)
-- reply class 1

-- ask What about this compound? C[C@@H](NC(=O)C1(c2cc3c(F)c(F)ccc3[nH]c2=O)CC1)c1cnc(C#N)cn1 (single isomer, unassigned)
-- reply class 0

-- ask Request: Cc1c(C(F)(F)C(=O)N[C@H](C)c2ncc(C#N)cc2F)c(=O)[nH]c2ccc(F)cc12 (single isomer, unassigned)
-- reply class 0

-- ask Further, for CC(C(=O)N[C@@H](C)c1ccc(F)cc1F)c1cc2ccccc2[nH]c1=O (stereo partly shown) ?
-- reply class 0

-- ask Can you check C[C@@H](NC(=O)Cc1cc2cc(F)ccc2[nH]c1=O)c1ncc(C#N)cn1 (single isomer, unassigned) next?
-- reply class 0

-- ask Ok, now Cc1c(C2(C(=O)N[C@H](C)c3cccc(C#N)n3)CC2)c(=O)[nH]c2ccc(F)cc12 (single isomer, unassigned)
-- reply class 0
